# target: T1, recombinant human 4-1BB extracellular domain protein (human, UniProt Q07011 24-186)
# T1 construct: extracellular domain; Analyte in the Octet assay; also called CD137; TNFRSF9
# method_summary: Octet BLI; chimeric IgG from transfection supernatant on anti-human Fc biosensor; recombinant human 41BB; column kdis(1/s) Human
Known koff of a selection of binders
Reply numerically in s⁻¹, unit not repeated.

Example results:
INSERT INTO assay_data (binder, property_measured, result_number) VALUES
  ('460C3 (antibody, human IgG1, kappa, V domains shown, one of the 34 chimeric antibodies; rabbit variable regions on human IgG1 and human kappa; also called 460C3 chimeric rabbit/human IgG) VH: QSLEESGGDLVKPGASLTLTCTASGIDFSRRYYMCWVRQAPGKGLEWIACIYTGSRDTPHYASWAKGRFTISQTSSTTVTLQMTSLTAADTATYFCAREGSLWGQGTLVTVSS VL: AQVLTQTPSSVSAAVGGTVSISCQSSQSVYSNWFSWYQQKPGQPPKLLIYSASTLASGVPSRFKGSGSGTQFTLTISDLECDDAATYYCAGGYNTVIDTFAFGGGTEVEFKR', 'koff', 0.00067),
  ('416G1 (antibody, human IgG1, kappa, V domains shown, one of the 34 chimeric antibodies; rabbit variable regions on human IgG1 and human kappa; also called 416G1 chimeric rabbit/human IgG) VH: QSVEESGGRLVTPGTPLTLTCTVSGFTINSYHMIWVRQAPGEGLEYIGFINDGGFTYYASWAKGRFIISRTSTTVDLKMTSLTVADTATYFCARGVDGTSYPDLWGPGTLVTVSS VL: DVVMTQTPASVSEPVGGAVTIKCQASQSIGSDLAWYQQKPGQPPKLLIYRASTLASGVSSRFKGSGSGTEFTLTISDLECADAATYYCQCIYYGSDDVIYHTFGGGTEVVVKR', 'koff', 0.0014),
  ('472E4 (antibody, human IgG1, kappa, V domains shown, one of the 34 chimeric antibodies; rabbit variable regions on human IgG1 and human kappa; also called 472E4 chimeric rabbit/human IgG) VH: QSLEESGGRLVTPGGSLTLTCTVSGFSLNNNAISWVRQAPGKGLEWVAIIQNTGTTDYARWAKGRFTISKTSTTVDLKINSPTTEDTATYFCGRGYGFESELVIWGPGTLVTVSS VL: AAVLTQTPSSTSAAVGGTVTISCQSSQSVYNNNALAWYQKKPGQPPKLLIYLASTLASGVPSRFSGSGSGTQFTLTISDLECDDAATYYCLGVYNDDVDNGFGGGTEVVFKR', 'koff', 0.0011),
  ('459F1 (antibody, human IgG1, kappa, V domains shown, one of the 34 chimeric antibodies; rabbit variable regions on human IgG1 and human kappa; also called 459F1 chimeric rabbit/human IgG) VH: ESLEESGGDLVKPGASLTLTCTASGIDFSRRYYMCWVRQAPGKGLEWIACMYTGSRDTPHYASWAKGRFTISQTSSTTVTLQMTSLTAADTATYFCAREGNLWGPGTLVTVSS VL: AQVLTQTASPVSAAVGGTVTINCQSSQSVYSNWFSWYQQKPGQPPKLLIYSASTLASGVPSRFKGSGSGTQFTLTISDLECDDAATYYCAGGYNTVTDTFAFGGGTEVEFKR', 'koff', 0.00075),
  ('420H5 (antibody, human IgG1, kappa, V domains shown, one of the 34 chimeric antibodies; rabbit variable regions on human IgG1 and human kappa; also called 420H5 chimeric rabbit/human IgG) VH: QSLEESGGDLVKPGASLTLTCTASGFSFSSNYWICWVRQAPGKGLEWIACIYVGSSGDTYYASWAKGRFTISKTSSTTVTLQMTSLTAADTATYFCARDSSSYYMFNLWGQGTLVTVSS VL: ALVMTQTPASVSAAVGGTVTINCQASEDIDTYLAWYQQKPGQPPKLLIFYASDLASGVPSRFKGSGSGTEFTLTISGVQCDDAATYYCQGGYYTSSADTRGAFGGGTEVVVKR', 'koff', 0.0013);

Lookup: Given 420H6 (antibody, human IgG1, kappa, V domains shown, one of the 34 chimeric antibodies; rabbit variable regions on human IgG1 and human kappa; also called 420H6 chimeric rabbit/human IgG) VH: QQQLEESGGGLVKPGGTLTLTCKASGIDFSSSYYMCWVRQAPGEGLEWIACIYTGGSGTPHYASWAKGRFTISQTSSTTVTLQMTSLTAADTATYFCAREGSLWGQGTLVTVSS VL: AQVLTQTASPVSAAVGGTVTINCQASQSVYSNWLSWYQQKPGQPPKRLIYSASTLASGVPSRFKGSGSGTQFTLTISDLECDDAATYYCAGGYNTVIDTFAFGGGTEVEFKR , state its recorded koff.
Found: 0.00094

Lookup: Given 418E4 (antibody, human IgG1, kappa, V domains shown, one of the 34 chimeric antibodies; rabbit variable regions on human IgG1 and human kappa; also called 418E4 chimeric rabbit/human IgG) VH: QSLEESGGRLVTPGTPLTLTCTASEFSLSSYYMSWVRQAPGKGLEWIGSIYASGSAYYASWAKGRFTISRTSTTVDLKMTSLTAADTATYFCVRDPINNDIWGPGTLVTVSS VL: ALVMTQTPSPVSAAVGGTVTINCQASQSIATNLNWYQQKPGQPPKLLIYYTSSLASGVPSRFSGSGSGTEFTLTISGVQCDDAATYYCLGVWNYWGDDGTAFGGGTEVEFKR , state its recorded koff.
Found: 0.0036

Source: patent US20210188989A1
